- methodDescription: Test Example 6: stability of respective vitamins on storage of infusion formulation of Example 11
- Type: physicochemical
- measurementParameters: in infusion formulation of Example 11; 40° C. and 75% RH; percentage based on the mixed amount
Structures can show the parent of a compound that is named as a salt.
valueKind: residual rate (content), storage for 1 month (%)
Answers are plain numbers, in %.

Cc1ncc(C[n+]2csc(CCO)c2C)c(N)n1 [Vitamin B1, Thiamine hydrochloride] : 90.6
O=C1O[C@H]([C@@H](O)CO)C(O)=C1O [Vitamin C, Ascorbic acid] : 97.6
Cc1ncc(CO)c(CO)c1O.Cl [Vitamin B6, Pyridoxine hydrochloride] : 96.7

Below are some molecules; for each one, tell me its residual rate (content), storage for 1 month.
1. NC(=O)c1cccnc1 [Nicotinamide]
2. Cc1cc2nc3c(=O)[nH]c(=O)nc-3n(C[C@H](O)[C@H](O)[C@H](O)COP(=O)([O-])O)c2cc1C.[Na+] [Vitamin B2, Riboflavin sodium phosphate]
3. CC(C)(CO)[C@@H](O)C(=O)NCCCO [Panthenol]
4. Nc1nc2ncc(CNc3ccc(C(=O)N[C@@H](CCC(=O)O)C(=O)O)cc3)nc2c(=O)[nH]1 [Folic acid]

Reply:
1: 101.5; 2: 94.3; 3: 97.6; 4: 96.5

---

- methodDescription: Test Example 7: stability of mixed solution of Example 11
- Assay type: physicochemical
- measurementParameters: mixed solution of Example 11, room temperature, light-shielded; value immediately after mixing = 100%
Structures can show the parent of a compound that is named as a salt.
Please provide measured content after 48 hours for the entries that follow.
One number for each entry, in %.

In the examples that follow, each entry is paired with its recorded content after 48 hours.
O=C1O[C@H]([C@@H](O)CO)C(O)=C1O [Vitamin C, Ascorbic acid] : 92.2
Cc1cc2nc3c(=O)[nH]c(=O)nc-3n(C[C@H](O)[C@H](O)[C@H](O)COP(=O)([O-])O)c2cc1C.[Na+] [Vitamin B2, Riboflavin sodium phosphate] : 99.8
NC(=O)c1cccnc1 [Nicotinamide] : 97.2
Cc1ncc(CO)c(CO)c1O.Cl [Vitamin B6, Pyridoxine hydrochloride] : 99.9
Cc1ncc(C[n+]2csc(CCO)c2C)c(N)n1 [Vitamin B1, Thiamine hydrochloride] : 94.1

Below are some compounds; for each one, tell me its content after 48 hours.
1. CC(=O)N[C@@H](CS)C(=O)O [N-acetyl cysteine]
2. CC(C)(CO)[C@@H](O)C(=O)NCCCO [Panthenol]
3. Nc1nc2ncc(CNc3ccc(C(=O)N[C@@H](CCC(=O)O)C(=O)O)cc3)nc2c(=O)[nH]1 [Folic acid]
4. O=C(O)CCCC[C@@H]1SC[C@@H]2NC(=O)N[C@@H]21 [Biotin]

Reply:
[97.5, 100.2, 96.2, 96.7]
